Biological target: Glutamate NMDA receptor
Experiment: Antagonist activity at NMDA receptor in rat cerebellar granule neurons assessed as inhibition of NMDA-induced increase in intracellular calcium level by fluorometric assay
Type: functional, cell-based
measure.name: IC50

>>> print(df.to_string())
                                item_smiles    result
0        CCN(CC)C12CC3CC(CC(C1)c1ccccc13)O2     14 µM
1      C#CCNC12CC3CC(CC)(CC(C1)c1ccccc13)O2  > 200 µM
2  C#CCN(CC#C)C12CC3CC(CC)(CC(C1)c1ccccc13)O2  > 200 µM
3          CCC12CC3CC(N)(CC(C1)c1ccccc13)O2  > 200 µM
4     CCN(CC)C12CC3CC(C)(CC(C1)c1ccccc13)O2    7.7 µM
5       CN(C)C12CC3CC(C)(CC(C1)c1ccccc13)O2    3.9 µM
6             CNC12CC3CC(CC(C1)c1ccccc13)O2      6 µM
